Every entry's value here was drawn from PubChem BioAssay (Tox21).

test: qHTS assay to identify aromatase inhibitors - cell viability counter screen (AID 743084); settings: MCF-7 aro ERE viability, CellTiter-Fluor, 24 h; series mostly up to 70.3 µM;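 note: cells stimulated with testosterone during compound exposure; nearly all actives have a fitted effect of over 55% in size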
Records with an inconclusive call do not appear. The source made the active and inactive calls. Calls come from the whole dose curve; as a rule, active = well fitted cell-killing curve with a large enough effect in the repeat runs; inconclusive = weak or mixed curves, or effect the other way; inactive = no such curve, though single readings can be large or run the other way.
Outcome codes: true (active), false (inactive)

| compound | assignedLabel |
| --- | --- |
| Clc1cc(Cl)c(-c2cc(Cl)c(Cl)cc2Cl)cc1Cl | false |
| O=c1[nH]c(Cl)c(Cl)cc1Cl | false |
| CCN(CC)CCc1c[nH]c2ccccc12 | false |
| O=C(O)[C@H](O)[C@@H](O)C(=O)O | false |
| OCC(Br)CBr (stereo not drawn) | false |
| CC(C)C(Br)C(=O)NC(N)=O (stereo not drawn) | false |
| CCC[CH2][Sn]([CH2]CCC)([CH2]CCC)[O][Sn]([CH2]CCC)([CH2]CCC)[CH2]CCC | true |
| ClC1=C(Cl)[C@]2(Cl)[C@H]3[C@H]([C@@H]4C=C[C@H]3C4)[C@@]1(Cl)C2(Cl)Cl | false |
| CN | false |
| CCN1CCC2(CC1)COc1cc3c(cc12)N(C(=O)c1ccc(-c2ccc(-c4nnc(C)o4)cc2C)cc1)CC3 | true |
| COC(=O)c1cc(Oc2ccc(Cl)cc2Cl)ccc1[N+](=O)[O-] | false |
| Clc1ccc(C(Cl)(Cl)Cl)cc1Cl | false |
| Fc1ccc(C(OCCN2CCN(CCCc3ccccc3)CC2)c2ccc(F)cc2)cc1 | true |

----------
test: A CellTox Green Cytotoxicity Assay to monitor cytotoxicity in HepG2 cells - 8 hour (AID 1224890); settings: CellTox Green fluorescence; series mostly up to 76.8 µM; note: nearly all actives have a fitted effect of over 45% in size
Results filed as inconclusive are left out. Calls of active or inactive are those of the source. The call rests on the fitted dose curve; in most records, active means well fitted activation curve with a large enough effect in the repeat runs; inconclusive means weak or mixed curves; inactive means flat fitted curve, though single readings scatter.
Outcome codes: active, inactive

| compound | assignedLabel |
| --- | --- |
| CCC(C)Nc1c([N+](=O)[O-])cc(C(C)(C)C)cc1[N+](=O)[O-] (centres undefined) | inactive |
| c1ccc2nc(N3CCNCC3)ccc2c1 | inactive |
| Oc1cc(Cl)c(Cl)c(Cl)c1Cl | inactive |
| CNC(=O)O/N=C(\C)C(C)S(C)(=O)=O (centres undefined) | inactive |
| Nc1nc(N)nc(Cl)n1 | inactive |
| NC1CCC(CC2CCC(N)CC2)CC1 (centres undefined) | inactive |
| O=P(Cl)(Cl)Cl | inactive |
| CSC(C)(C)/C=N/O | inactive |
| CCOP(=S)(OCC)SC(CCl)N1C(=O)c2ccccc2C1=O (centres undefined) | inactive |
| O=[N+]([O-])c1cccc2cccc([N+](=O)[O-])c12 | inactive |
| Clc1cc(Cl)c(-c2cc(Cl)c(Cl)cc2Cl)cc1Cl | inactive |
| CC(C)(C)c1ccc(OP(=O)(Oc2ccccc2)Oc2ccccc2)cc1 | inactive |
| Nc1ccccc1-c1ccccc1 | inactive |
| Oc1cc(Cl)cc(Cl)c1 | inactive |
| S=C=Nc1ccccc1 | inactive |
| CC(O)C(=O)[O][Hg][c]1ccccc1 (centres undefined) | active |
| CC(=O)[O][Sn]([c]1ccccc1)([c]1ccccc1)[c]1ccccc1 | active |
| CC(=O)[O][Pb]([c]1ccccc1)([c]1ccccc1)[c]1ccccc1 | active |
| CCCCc1ccccc1 | inactive |
| O=[N+]([O-])[O-].[Tl+] | inactive |
| CC(C)=CCN1CC[C@@]2(C)c3cc(O)ccc3C[C@@H]1[C@@H]2C | inactive |
| CO/N=C(\C(=O)OC)c1ccccc1CO/N=C(\C)c1cccc(C(F)(F)F)c1 | inactive |
| CN1CCc2cc(Cl)c(O)cc2[C@H]2c3ccccc3CC[C@@H]21 | inactive |
| CCN(CC)CCc1c[nH]c2ccccc12 | inactive |
